Just for reference, ChEMBL document CHEMBL4831487 is where these values come from.

Measured IC50, listed per entry.
- testedSystem: Syntenin-1/Syndecan-2 (Homo sapiens)
- Sequence (O00560 whole entry): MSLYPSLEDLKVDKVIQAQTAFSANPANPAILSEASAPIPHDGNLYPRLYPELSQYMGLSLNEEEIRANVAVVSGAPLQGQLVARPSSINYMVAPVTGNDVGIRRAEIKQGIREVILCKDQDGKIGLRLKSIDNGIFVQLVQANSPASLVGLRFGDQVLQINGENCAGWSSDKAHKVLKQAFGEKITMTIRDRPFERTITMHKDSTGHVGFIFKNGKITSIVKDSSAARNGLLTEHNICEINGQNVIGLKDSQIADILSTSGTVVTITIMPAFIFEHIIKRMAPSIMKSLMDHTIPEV
- Sequence (P34741 whole entry, further chain): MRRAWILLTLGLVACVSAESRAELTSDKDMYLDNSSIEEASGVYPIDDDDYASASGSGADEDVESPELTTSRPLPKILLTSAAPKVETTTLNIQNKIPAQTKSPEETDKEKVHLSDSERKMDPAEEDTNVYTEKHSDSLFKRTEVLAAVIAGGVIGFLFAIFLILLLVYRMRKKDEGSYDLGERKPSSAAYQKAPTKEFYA
- assayComment: Inhibition of recombinant human full-length GST-tagged syntenin-1/Syndecan-2 complex interaction expressed in Escherichia coli ER2566 in presence of NP40 detergent measured after 16 hrs by HTRF assay
Answer in µM, number only, no unit symbol.

{"structure": "CC(C)[C@H](NC(=O)CCSc1ccc(-c2ccc(OS(C)(=O)=O)cc2)cc1)C(=O)O", "testedSystem": "Syntenin-1/Syndecan-2 (Homo sapiens)", "quantityMeasured": "IC50", "measuredValue": 204}
{"structure": "CC(C)[C@H](NC(=O)CSc1ccc(Cl)cc1)C(=O)O", "testedSystem": "Syntenin-1/Syndecan-2 (Homo sapiens)", "quantityMeasured": "IC50", "measuredValue": 864}
{"structure": "CC(C)[C@H](NC(=O)CCSc1ccc(Cl)cc1)C(=O)O", "testedSystem": "Syntenin-1/Syndecan-2 (Homo sapiens)", "quantityMeasured": "IC50", "measuredValue": 45}

Name the reported IC50 value associated with the compound `CC(C)[C@H](NC(=O)CCSc1ccc(Br)cc1)C(=O)O`
51

* * *

- testedSystem: Syntenin-1/Syndecan-2 (Homo sapiens) (UniProt O00560+P34741)
- assayComment: Inhibition of recombinant human full-length GST-tagged syntenin-1/Syndecan-2 complex interaction expressed in Escherichia coli ER2566 at 400 uM measured after 16 hrs by HTRF assay
quantityMeasured: inhibition (%)
Record the value in %, omitting the unit from your answer.

// known answers, use as guide
{"structure": "O=C(CCOc1ccc(Cl)cc1)N[C@@H](Cc1ccccc1)C(=O)O", "quantityUnit": "%", "measuredValue": 1}
{"structure": "C[C@H](NC(=O)CCOc1ccc(Cl)cc1)C(=O)O", "quantityUnit": "%", "measuredValue": 6}
{"structure": "CC(C)[C@H](NC(=O)CCOc1ccccc1)C(=O)O", "quantityUnit": "%", "measuredValue": 0}

What measured inhibition goes with `CC(C)[C@H](NC(=O)CCOc1ccc(Cl)cc1)C(=O)O` ?
31

What value of inhibition has been recorded for this entry: `CC(C)[C@H](NC(=O)CSc1ccc(Cl)cc1)C(=O)O`
56

Which inhibition value is on record for `C[C@H](NC(=O)CSc1ccc(Cl)cc1)C(=O)O` ?
25

inhibition lookup needed for `C[C@H](NC(=O)CSc1ccccc1)C(=O)O` , thanks.
0

# query: inhibition of entry `CC(C)[C@H](NC(=O)CSc1ccccc1)C(=O)O`
20

Report inhibition for `O=C(CCSc1ccccc1)N[C@@H](Cc1ccccc1)C(=O)O` please.
0

Would you mind telling me what inhibition value was observed for `CC(C)[C@H](NC(=O)CCSc1ccc(Cl)cc1)C(=O)O` ?
94

Please look up its inhibition: `CC(C)[C@H](NC(=O)CCCc1ccccc1)C(=O)O`
9

Entry under review: `C[C@H](NC(=O)CCSc1ccc(Cl)cc1)C(=O)O` . Reported inhibition?
56

What value of inhibition has been reported for the following compound? `CC(C)[C@H](NC(=O)COc1ccc(Cl)cc1)C(=O)O`
16

Fill blank: measured inhibition of the compound `CC(C)[C@H](NC(=O)COc1ccccc1)C(=O)O` is ____.
7

Field request: inhibition | item: `C[C@H](NC(=O)COc1ccc(Cl)cc1)C(=O)O`
0

What does the data say about its inhibition? Entry: `CC(C)[C@H](NC(=O)CCSc1ccccc1)C(=O)O`
76

Consider the compound shown here: `C[C@H](NC(=O)COc1ccccc1)C(=O)O` What is its recorded inhibition?
0

Fill blank: measured inhibition of the compound `C[C@H](NC(=O)CCSc1ccccc1)C(=O)O` is ____.
19
